What GI50 was measured for each of the following?
System: NCI/ADR-RES
Experiment Notes: NCI tumour cell line growth inhibition, 48 h
The source made the active and inactive calls. No stated cut-off is given here; in the data, active = GI50 up to about 1.1 µM and inactive = higher.

Lookup: Give recorded GI50 with NCI/ADR-RES for the following compound: COC(=O)CC1C2(C)C3=C(C)C(c4ccoc4)CC3OC2C2OC(=O)C3(C)C=CC(=O)C1(C)C23 (configuration not stated)
Found: 2.04 µM (inactive)

Lookup: Item CC(O)c1cc2c(s1)C(=O)c1sccc1C2=O (configuration not stated) with NCI/ADR-RES - GI50?
Found: 0.178 µM (active)

Lookup: What value of GI50 on NCI/ADR-RES does Nc1nc(N)c2nc(CNc3ccc(C(=O)NC(CCNC(=O)c4ccccc4C(=O)O)C(=O)O)cc3)cnc2n1 (configuration not stated) have?
Found: < 0.0173 µM (active)

Lookup: Notebook entry, NCI/ADR-RES assay: GI50 of `COc1ccc(OC)c(/N=C/c2cc(OC)c(OC)c(OC)c2)c1` = ?
Found: > 100 µM (inactive)

Lookup: Item: `CCOC(=O)c1cc2c([N+](=O)[O-])c(N)ccc2s1` Test system: NCI/ADR-RES Read-out: GI50 Value: ?
Found: > 100 µM (inactive)

Lookup: Provide value of GI50 for this record tested with NCI/ADR-RES: C=C1C(=O)O[C@H]2C1C[C@@H](OC(C)=O)/C(C)=C/CC[C@@]1(C)O[C@H]21 (some centres not stated)
Found: 11 µM (inactive)

Lookup: API: value(readout= GI50, system= NCI/ADR-RES, query= `CN(C)Cc1cc(C(C)(C)C)cc(CN(C)C)c1O` )
Found: 34.2 µM (inactive)

###

Tested on: OVCAR-3
Experiment Notes: NCI tumour cell line growth inhibition, 48 h
The source made the active and inactive calls. Rule as the data show it: active = GI50 up to about 1.1 µM and inactive = higher.
Assign a class; possible classes are true = active, false = inactive

Lookup: Can you look up the reported call for `O=C1c2c(ccc3c2CCCC3)CC12Cc1ccc3c(c1C2=O)CCCC3` for me?
Found: false

Lookup: Which outcome did this test record for the compound COc1cc(OC)c2c(c1)C(=O)C(CC(C)O)=CC2=O (stereo unspecified) ?
Found: false

Lookup: Tell me the recorded outcome of this test for OC[C@H]1O[C@@H](n2cnc3cncnc32)[C@H](O)[C@@H]1O [NEBULARINE] .
Found: false

Lookup: Query: recorded result category for `Cc1cc(CC(O)(C(F)(F)F)C(F)(F)F)cc(CC(O)(C(F)(F)F)C(F)(F)F)n1` in this test
Found: true

Lookup: Given CCCC(C)n1c(C)nc2c1C(=O)c1ccccc1C2=O (stereo unspecified) , state the outcome it received in this test.
Found: false

Lookup: Hi, do you know how `Fc1ccc(N2C(=S)SC(=N\c3ccccc3)/C2=N/c2ccccc2)cc1` came out in this test?
Found: false

Lookup: How did this test come out for `Cc1cc(C)nc(NS(=O)(=O)c2ccc(Nc3nncc(=O)n3N)cc2)n1` ?
Found: false

Lookup: Tell me the assay call for N#CC12CNCC1CN=N2 (stereo unspecified) please.
Found: false

Lookup: Name the outcome recorded for COC(=O)CCC(NC(=S)N/N=C(\C)c1ccccn1)C(=O)OC (stereo unspecified) in the assay.
Found: false

Lookup: What did the test return for `COc1cc(NCc2ccc3nc(OC)c(OC)nc3c2)cc(OC)c1OC` ?
Found: false

Lookup: Recorded call for `COC(=O)[C@@H]1C[C@@]23CCCN4CC[C@@]5(c6cccc(OC)c6N(C=O)[C@]15CC2)[C@@H]43` ?
Found: false
